- target_entity: T1, HLA-A*0203 (human)
- T1 construct: purified HLA class I molecule
- assay_overview: competition for purified HLA vs 125I-labelled probe peptide, gel filtration
measurement_kind: pIC50
One number for each entry, as −log10 of the molar value.

The value of pIC50 measured for the binder KTFGSLAFV (analog of Her2/neu.369) [Her2/neu.369.T2V9] turned out to be 6.00

Please state pIC50 for every binder in the list that follows.
1. VLIQRNPQV (analog of Her2/neu.153) [Her2/neu.153.V9]
2. SLISAVVGV (analog of Her2/neu.653) [Her2/neu.653.L2V9]

[6.87, 7.80]
